Recorded measurements of MIC, one per entry
system: Staphylococcus epidermidis; assay: Antibacterial activity against methicillin-sensitive Staphylococcus epidermidis 08-17; assay type: functional

>  <compound>
CO/N=C1\CCN(c2c(F)cc3c(=O)c(C(=O)O)cn(CCF)c3c2F)CC1CN (racemic)

>  <MIC (µg/mL)>
32

$$$$
>  <compound>
CO/N=C1\CCN(c2c(F)cc3c(=O)c(C(=O)O)cn(C4CC4)c3c2OC)CC1CN (racemic)

>  <MIC (µg/mL)>
4

$$$$
>  <compound>
CCO/N=C1\CCN(c2c(F)cc3c(=O)c(C(=O)O)cn(C4CC4)c3c2OC(F)F)CC1CN (racemic)

>  <MIC (µg/mL)>
4

$$$$
>  <compound>
CO/N=C1\CN(c2nc3c(cc2F)c(=O)c(C(=O)O)cn3C2CC2)CC1CN (stereo unspecified)

>  <MIC (µg/mL)>
0.06

$$$$
>  <compound>
CCO/N=C1\CCN(c2nc3c(cc2F)c(=O)c(C(=O)O)cn3-c2ccc(F)cc2F)CC1CN (racemic)

>  <MIC (µg/mL)>
1

$$$$
>  <compound>
CCO/N=C1\CCN(c2c(F)cc3c(=O)c(C(=O)O)cn(CC)c3c2F)CC1CN (racemic)

>  <MIC (µg/mL)>
32

$$$$
